- ASSAY_SUMMARY: Caco-2 cell monolayer membrane transport assay (Papp and recovery)
- Type: in vitro ADME
- CONDITION_CONTEXT: human, Caco-2, Caco-2, A-B, Sample-02; read-out: Recovery rate in mass, Sample-02
READOUT: recovery

Read off the recorded recovery for `CO[C@H]1C[C@H]2OC[C@@]2(OC(C)=O)[C@H]2[C@H](OC(=O)c3ccccc3)[C@]34OC(=O)O[C@H]3[C@H](OC(=O)[C@H](O)[C@@H](NC(=O)OC(C)(C)C)c3ccccn3)C(C)=C([C@@H](OC(=O)N(C)C)C(=O)[C@]12C)C4(C)C` 82.6%

Read off the recorded recovery for `COC(=O)O[C@H]1C(=O)[C@]2(C)[C@@H](OC)C[C@H]3OC[C@@]3(OC(C)=O)[C@H]2[C@H](OC(=O)c2ccccc2)[C@]23OC(=O)O[C@H]2[C@H](OC(=O)[C@H](O)[C@@H](NC(=O)OC(C)(C)C)c2ccccc2)C(C)=C1C3(C)C` 38.2 to 39.5%

Read off the recorded recovery for `CO[C@H]1C(=O)[C@@]2(C)[C@H]([C@H](OC(=O)c3ccccc3)[C@]34OC(=O)O[C@H]3[C@H](OC(=O)[C@H](O)[C@@H](NC(=O)OC(C)(C)C)c3ccccc3)C(C)=C1C4(C)C)[C@]1(OC(C)=O)CO[C@@H]1C[C@@H]2O` 96.6%

Read off the recorded recovery for `CCSC(=O)O[C@H]1C[C@H]2OC[C@@]2(OC(C)=O)[C@H]2[C@H](OC(=O)c3ccccc3)[C@]34OC(=O)O[C@H]3[C@H](OC(=O)[C@H](O)[C@@H](NC(=O)OC(C)(C)C)c3ccccc3)C(C)=C([C@@H](OC)C(=O)[C@]12C)C4(C)C` 67.5%

Read off the recorded recovery for `CO[C@H]1C(=O)[C@]2(C)[C@@H](OC)C[C@H]3OC[C@@]3(OC(C)=O)[C@H]2[C@H](OC(=O)c2ccccc2)[C@]23OC(=O)O[C@H]2[C@H](OC(=O)[C@H](O)[C@H](CC(C)C)NC(=O)OC(C)(C)C)C(C)=C1C3(C)C` 51.3%

Read off the recorded recovery for `COC(=O)O[C@H]1C[C@H]2OC[C@@]2(OC(C)=O)[C@H]2[C@H](OC(=O)c3ccccc3)[C@]34OC(=O)O[C@H]3[C@H](OC(=O)[C@H](O)[C@@H](NC(=O)OC(C)(C)C)c3ccccn3)C(C)=C([C@@H](OC)C(=O)[C@]12C)C4(C)C` 90.9%

Read off the recorded recovery for `CO[C@H]1C(=O)[C@]2(C)[C@@H](OC)C[C@H]3OC[C@@]3(OC(C)=O)[C@H]2[C@H](OC(=O)c2ccccc2)[C@]23OC(=O)O[C@H]2[C@H](OC(=O)[C@H](O)[C@@H](NC(=O)OC(C)(C)C)c2ccccc2)C(C)=C1C3(C)C` 61.2%

Read off the recorded recovery for `CO[C@H]1C(=O)[C@]2(C)[C@@H](OC(=O)N(C)C)C[C@H]3OC[C@@]3(OC(C)=O)[C@H]2[C@H](OC(=O)c2ccccc2)[C@]23OC(=O)O[C@H]2[C@H](OC(=O)[C@H](O)[C@H](CC(C)C)NC(=O)OC(C)(C)C)C(C)=C1C3(C)C` 33.5%

====

Task for the reader: assign each of the following molecules its reported inhibition at 1 µM.
- Test system: MCF-7 breast cancer cells
- ASSAY_SUMMARY: MTT proliferation inhibition, MCF-7
- Type: cell-based
- CONDITION_CONTEXT: Homo sapiens, MCF7, read-out: Proliferation inhibition rate, MCF-7 Breast cancer
Please give a number only; it is taken to be in %.

Please report inhibition at 1 µM with MCF-7 breast cancer cells for item CO[C@H]1C(=O)[C@]2(C)[C@@H](OC(=O)N(C)C)C[C@H]3OC[C@@]3(OC(C)=O)[C@H]2[C@H](OC(=O)c2ccccc2)[C@]23OC(=O)O[C@H]2[C@H](OC(=O)[C@H](O)[C@H](CC(C)C)NC(=O)OC(C)(C)C)C(C)=C1C3(C)C [PCMI-16] . 97.2

Please report inhibition at 1 µM with MCF-7 breast cancer cells for item COC(=O)O[C@H]1C[C@H]2OC[C@@]2(OC(C)=O)[C@H]2[C@H](OC(=O)c3ccccc3)[C@]34OC(=O)O[C@H]3[C@H](OC(=O)[C@H](O)[C@@H](NC(=O)OC(C)(C)C)c3ccccn3)C(C)=C([C@@H](OC)C(=O)[C@]12C)C4(C)C [PCMI-18] . 96.2

Please report inhibition at 1 µM with MCF-7 breast cancer cells for item CO[C@H]1C[C@H]2OC[C@@]2(OC(C)=O)[C@H]2[C@H](OC(=O)c3ccccc3)[C@]34OC(=O)O[C@H]3[C@H](OC(=O)[C@H](O)[C@@H](NC(=O)N(C)C)c3ccccc3)C(C)=C([C@@H](OC(=O)N(C)C)C(=O)[C@]12C)C4(C)C [PCMI-11] . 82.4

Please report inhibition at 1 µM with MCF-7 breast cancer cells for item CO[C@H]1C[C@H]2OC[C@@]2(OC(C)=O)[C@H]2[C@H](OC(=O)c3ccccc3)[C@]34OC(=O)O[C@H]3[C@H](OC(=O)[C@H](O)[C@@H](NC(=O)OC(C)(C)C)c3ccccc3)C(C)=C([C@@H](OC(=O)N(C)C)C(=O)[C@]12C)C4(C)C [PCMI-08] . 81.3

Please report inhibition at 1 µM with MCF-7 breast cancer cells for item CO[C@H]1C(=O)[C@]2(C)[C@@H](OC)C[C@H]3OC[C@@]3(OC(C)=O)[C@H]2[C@H](OC(=O)c2ccccc2)[C@]23OC(=O)O[C@H]2[C@H](OC(=O)[C@H](O)[C@@H](NC(=O)c2ccccc2)c2ccccc2)C(C)=C1C3(C)C [PCMI-02] . 93.5

Please report inhibition at 1 µM with MCF-7 breast cancer cells for item COC(=O)O[C@H]1C[C@H]2OC[C@@]2(OC(C)=O)[C@H]2[C@H](OC(=O)c3ccccc3)[C@]34OC(=O)O[C@H]3[C@H](OC(=O)[C@H](O)[C@@H](NC(=O)OC(C)(C)C)c3ccccc3)C(C)=C([C@@H](OC)C(=O)[C@]12C)C4(C)C [PCMI-17] . 93.1

Please report inhibition at 1 µM with MCF-7 breast cancer cells for item COC(=O)O[C@H]1C[C@H]2OC[C@@]2(OC(C)=O)[C@H]2[C@H](OC(=O)c3ccccc3)[C@]34OC(=O)O[C@H]3[C@H](OC(=O)[C@H](O)[C@H](CC(C)C)NC(=O)OC(C)(C)C)C(C)=C([C@@H](OC)C(=O)[C@]12C)C4(C)C [PCMI-20] . 85.4

Please report inhibition at 1 µM with MCF-7 breast cancer cells for item CCSC(=O)O[C@H]1C[C@H]2OC[C@@]2(OC(C)=O)[C@H]2[C@H](OC(=O)c3ccccc3)[C@]34OC(=O)O[C@H]3[C@H](OC(=O)[C@H](O)[C@@H](NC(=O)OC(C)(C)C)c3ccccc3)C(C)=C([C@@H](OC)C(=O)[C@]12C)C4(C)C [PCMI-21] . 88.7

Please report inhibition at 1 µM with MCF-7 breast cancer cells for item CO[C@H]1C[C@H]2OC[C@@]2(OC(C)=O)[C@H]2[C@H](OC(=O)c3ccccc3)[C@]34OC(=O)O[C@H]3[C@H](OC(=O)[C@H](O)[C@H](CC(C)C)NC(=O)OC(C)(C)C)C(C)=C([C@@H](OC(=O)N(C)C)C(=O)[C@]12C)C4(C)C [PCMI-10] . 85.9

Please report inhibition at 1 µM with MCF-7 breast cancer cells for item CO[C@H]1C[C@H]2OC[C@@]2(OC(C)=O)[C@H]2[C@H](OC(=O)c3ccccc3)[C@]34OC(=O)O[C@H]3[C@H](OC(=O)[C@H](O)[C@@H](NC(=O)OC(C)(C)C)c3ccccn3)C(C)=C([C@@H](OC(=O)N(C)C)C(=O)[C@]12C)C4(C)C [PCMI-09] . 89.8

Please report inhibition at 1 µM with MCF-7 breast cancer cells for item COC(=O)O[C@H]1C[C@H]2OC[C@@]2(OC(C)=O)[C@H]2[C@H](OC(=O)c3ccccc3)[C@]34OC(=O)O[C@H]3[C@H](OC(=O)[C@H](O)[C@@H](NC(=O)N(C)C)c3ccccc3)C(C)=C([C@@H](OC)C(=O)[C@]12C)C4(C)C [PCMI-19] . 89.7

Please report inhibition at 1 µM with MCF-7 breast cancer cells for item CO[C@H]1C(=O)[C@]2(C)[C@@H](OC)C[C@H]3OC[C@@]3(OC(C)=O)[C@H]2[C@H](OC(=O)c2ccccc2)[C@]23OC(=O)O[C@H]2[C@H](OC(=O)[C@H](O)[C@@H](NC(=O)N(C)C)c2ccccc2)C(C)=C1C3(C)C [PCMI-03] . 95.3

Please report inhibition at 1 µM with MCF-7 breast cancer cells for item CCSC(=O)O[C@H]1C(=O)[C@]2(C)[C@@H](OC)C[C@H]3OC[C@@]3(OC(C)=O)[C@H]2[C@H](OC(=O)c2ccccc2)[C@]23OC(=O)O[C@H]2[C@H](OC(=O)[C@H](O)[C@@H](NC(=O)OC(C)(C)C)c2ccccc2)C(C)=C1C3(C)C [PCMI-13] . 84.7

The measurements presented in this section are drawn from patent US9890175B2.
